Below, each entry is listed with its recorded TGI.
Test system: HCC-2998 colon
TEST: NCI tumour cell line growth inhibition, 48 h
READOUT NAME: TGI

{"QUERY SMILES": "N/N=c1/nc2n(c3ncccc13)C=CNN2", "OBSERVED": "> 100 µM"}
{"QUERY SMILES": "C/C(=C\\C(=O)O[C@H]1[C@@H]2[C@H](C)CC[C@H]2[C@]2(C)O[C@@]1(C1CCCCC1)C[C@H]2OC(=O)CO)c1ccccc1", "OBSERVED": "14.4 µM"}
{"QUERY SMILES": "Cc1cc(I)cc(CNCCN(C)C)c1O", "OBSERVED": "> 100 µM"}
{"QUERY SMILES": "C[C@@H]1CN2[C@H]3[C@@H]1CC[C@]31CCC(=O)O[C@]1(C)[C@H]1CC[C@H]3CCC=C3[C@@H]12", "OBSERVED": "> 30 µM"}
{"QUERY SMILES": "CN(Cc1cnc2nc(N)nc(N)c2n1)c1ccc(C(=O)NCCCS(=O)(=O)O)cc1", "OBSERVED": "> 100 µM"}

====

Below, each entry is listed with its recorded TGI.
Test system: A498 renal
TEST: NCI tumour cell line growth inhibition, 48 h

{"QUERY SMILES": "O=C1c2ccccc2C(=O)N1/N=C1/SC(=Nc2ccccc2)C(=Nc2ccccc2)N1c1ccccc1", "LIMIT OPERATOR": ">", "TGI, µM": 63.1}
{"QUERY SMILES": "CCN1CCN(CCC(=O)Nc2cccc(-n3cc(-c4ccncc4)c(-c4ccc(Cl)c(OC)c4)n3)c2)CC1", "LIMIT OPERATOR": "=", "TGI, µM": 2.74}
{"QUERY SMILES": "COc1cc(/C=C/C(=O)c2cccc(-n3cc(-c4ccccc4)[nH]c3=O)c2)cc(OC)c1OC", "LIMIT OPERATOR": "=", "TGI, µM": 6.63}
{"QUERY SMILES": "O=C1c2ccccc2-c2nnc3c(c21)Cc1ccccc1C3", "LIMIT OPERATOR": ">", "TGI, µM": 10}
{"QUERY SMILES": "O=S1OC(c2ccccc2)(c2ccccc2)C(c2ccccc2)(c2ccccc2)O1", "LIMIT OPERATOR": ">", "TGI, µM": 100}
{"QUERY SMILES": "Cc1ccc(S(=O)(=O)n2cc(/C=C/C#N)c(-c3cn(S(=O)(=O)c4ccc(C)cc4)cc3-c3cn(S(=O)(=O)c4ccc(C)cc4)cc3/C=C/C#N)c2)cc1", "LIMIT OPERATOR": ">", "TGI, µM": 100}
{"QUERY SMILES": "COC(=O)[C@@H](C)C[C@H](Cc1ccccc1)NC(=O)c1nc([C@@H](C[C@H](C(C)C)N(C)C(=O)[C@@H](NC(=O)[C@H]2C[C@H](O)CCN2C)C(C)C)OC(C)=O)sc1C(C)C", "LIMIT OPERATOR": "=", "TGI, µM": 0.0881}
{"QUERY SMILES": "NS(=O)(=O)c1ccc(N(/C=C/C(=O)C(F)(F)F)CC(=O)c2ccc(F)cc2)cc1", "LIMIT OPERATOR": "=", "TGI, µM": 0.54}

====

System: NCI-H522 lung
TEST: NCI tumour cell line growth inhibition, 48 h
READOUT NAME: TGI (µM)

{"MOLECULE": "COc1cc2nc3n(c2cc1OC)C(O)c1c(Cl)nc(SC)nc1S3 (stereo unspecified)", "SYSTEM": "NCI-H522 lung", "READOUT NAME": "TGI", "QUANTITY UNIT": "µM", "LIMIT OPERATOR": "=", "OBSERVED": 4.36}
{"MOLECULE": "CC(NCc1c(O)ccc2c(-c3ccccc3)cc(=O)oc12)C(=O)O (stereo unspecified)", "SYSTEM": "NCI-H522 lung", "READOUT NAME": "TGI", "QUANTITY UNIT": "µM", "LIMIT OPERATOR": ">", "OBSERVED": 100}
{"MOLECULE": "Nc1ccccc1N", "SYSTEM": "NCI-H522 lung", "READOUT NAME": "TGI", "QUANTITY UNIT": "µM", "LIMIT OPERATOR": "=", "OBSERVED": 47.5}
{"MOLECULE": "C#CCN(Cc1ccc2nc(-c3ccccc3)c(Cl)nc2c1)c1ccc(F)cc1", "SYSTEM": "NCI-H522 lung", "READOUT NAME": "TGI", "QUANTITY UNIT": "µM", "LIMIT OPERATOR": ">", "OBSERVED": 100}
{"MOLECULE": "O=C1NN2CC(c3ccccc3)=NN=C2c2ccccc21", "SYSTEM": "NCI-H522 lung", "READOUT NAME": "TGI", "QUANTITY UNIT": "µM", "LIMIT OPERATOR": "=", "OBSERVED": 77.1}
{"MOLECULE": "NCCCCCC(CCN)SCC1OC(n2cnc3c(N)ncnc32)C(O)C1O (stereo unspecified)", "SYSTEM": "NCI-H522 lung", "READOUT NAME": "TGI", "QUANTITY UNIT": "µM", "LIMIT OPERATOR": ">", "OBSERVED": 1500}

====

Tested on: LXFL 529 NSCLC
TEST: NCI tumour cell line growth inhibition, 48 h

{"QUERY SMILES": "CS(=O)(=O)OCCN(CCOS(C)(=O)=O)c1ccc(C=Nc2ccc(-c3csc(COc4ccccc4)n3)cc2)cc1", "LIMIT OPERATOR": "=", "TGI, µM": 25.3}
{"QUERY SMILES": "CCN(CC)CC(=O)NC1c2ccccc2Oc2ccccc21", "LIMIT OPERATOR": ">", "TGI, µM": 100}
{"QUERY SMILES": "N/N=c1/nc2n(c3ncccc13)C=CNN2", "LIMIT OPERATOR": ">", "TGI, µM": 100}
{"QUERY SMILES": "CC[C@@]1(OP(=O)(O)O)C(=O)OCc2c1cc1n(c2=O)Cc2cc3ccccc3nc2-1", "LIMIT OPERATOR": "=", "TGI, µM": 70.8}
{"QUERY SMILES": "COc1ccc2c(c1)[C@@H](NC(C)=O)CCc1cc(OC)c(OC)c(OC)c1-2", "LIMIT OPERATOR": ">", "TGI, µM": 100}

====

Below, each entry is listed with its recorded TGI.
System: MALME-3M melanoma
TEST: NCI tumour cell line growth inhibition, 48 h

{"COMPOUND": "O=C(CCc1n[nH]c(=S)o1)Nc1cc(Cl)ccc1Cl", "TGI": "> 100 µM"}
{"COMPOUND": "CC(C)=CCC[C@@H](C)[C@H]1CC[C@@]2(C)[C@@H]3CC[C@H]4C(C)(C)[C@@H](O)CC[C@@]45C[C@@]35CC[C@]12C", "TGI": "> 100 µM"}
{"COMPOUND": "Cc1ccc2c(c1C)C(=O)C1(C2)Cc2ccc3c(c2C1=O)CCC3 (stereo not drawn)", "TGI": "> 100 µM"}
{"COMPOUND": "Cn1cc(C2=C(c3ccsc3)C(=O)NC2=O)c2ccccc21", "TGI": "> 25 µM"}
{"COMPOUND": "O=C1C2C3CC4C5C3C1C5C1(SCCS1)C42 (stereo not drawn)", "TGI": "> 100 µM"}
{"COMPOUND": "NCCCCCC(CCN)SCC1OC(n2cnc3c(N)ncnc32)C(O)C1O (stereo not drawn)", "TGI": "> 1500 µM"}
{"COMPOUND": "C/C(=C\\C(=O)O[C@H]1[C@@H]2[C@H](C)CC[C@H]2[C@]2(C)O[C@@]1(C1CCCCC1)C[C@H]2OC(=O)CO)c1ccccc1", "TGI": "13.5 µM"}
{"COMPOUND": "C=CCOC(=O)Cn1cnc2c(N)ncnc21", "TGI": "> 100 µM"}
{"COMPOUND": "CN1CCN(c2cc3[nH]c4cc(O)cc(O)c4c(=O)c3cc2N)CC1", "TGI": "67.4 µM"}
{"COMPOUND": "Cc1cn2cc(-c3cccs3)nc2s1", "TGI": "> 100 µM"}
{"COMPOUND": "ClC1=C(Cl)C(Cl)(C2(Cl)C(Cl)=C(Cl)C(Cl)=C2Cl)C(Cl)=C1Cl", "TGI": "0.446 µM"}
{"COMPOUND": "O=P1(NCCCl)OCCCN1CCCl (stereo not drawn)", "TGI": "399 µM"}
{"COMPOUND": "O=C(CCC(=O)c1ccsc1)c1ccsc1", "TGI": "> 100 µM"}
{"COMPOUND": "Nc1ccccc1N", "TGI": "> 100 µM"}
{"COMPOUND": "CCOC(=O)c1nc2ccccc2nc1Oc1cc(OC)cc(OC)c1", "TGI": "> 100 µM"}
{"COMPOUND": "CSC(=S)CC(O)[C@@H]1CC2c3ccccc3C1c1ccccc12 (stereo partly drawn)", "TGI": "39.1 µM"}
{"COMPOUND": "Cc1nc2ccc(F)cc2c2c1CCS2", "TGI": "> 100 µM"}
{"COMPOUND": "CC(=O)OCC1C(=O)OCC1C(=O)N1Cc2cc3ccccc3nc2C1 (stereo not drawn)", "TGI": "3.16 µM"}
{"COMPOUND": "CC(=O)N1C=Cc2c(c(C)c3c([nH]c4ccccc43)c2C)C1", "TGI": "23.1 µM"}
{"COMPOUND": "COc1ccc(-c2csc3c2-n2cccc2C3=O)cc1", "TGI": "> 100 µM"}
{"COMPOUND": "COC(=O)NC(=O)NC(Cc1ccccc1)NC(=O)OCc1ccccc1 (stereo not drawn)", "TGI": "> 100 µM"}
{"COMPOUND": "N#CCCNc1nonc1-c1nc2ccccc2n1CC(=O)c1ccc(N)cc1", "TGI": "> 100 µM"}
{"COMPOUND": "COc1ccc(-c2cc(N3CCN(c4ccc(Cl)cc4)CC3)c(C#N)c(=O)o2)cc1", "TGI": "22.3 µM"}
{"COMPOUND": "Cc1cccc2cc(/C=C/C(=O)/C=C/c3ccc(Cl)cc3)c(=O)[nH]c12", "TGI": "> 100 µM"}
{"COMPOUND": "O=C(O)c1ccccc1CN1CCCC(C(=O)O)C1 (stereo not drawn)", "TGI": "> 100 µM"}
{"COMPOUND": "Cc1c2cnccc2c(C)c2c1c1ccccc1n2CCOC(=O)c1ccccc1", "TGI": "28.8 µM"}
{"COMPOUND": "CCC(C)N1CN(c2ccccc2)C2(CCN(CC3COc4ccccc4O3)CC2)C1=O (stereo not drawn)", "TGI": "34.6 µM"}
{"COMPOUND": "CCC(=C(c1ccc(OCCN2CCCCC2)cc1)c1ccc(OCCN2CCCCC2)cc1)c1ccc(Cl)cc1", "TGI": "5.21 µM"}
{"COMPOUND": "O=C(c1ccc2ccccc2c1)C1(I)S(=O)(=O)OCCOS1(=O)=O", "TGI": "> 100 µM"}
{"COMPOUND": "CC(C)(C)N(Cc1ccccc1)C(=O)/C=C\\S(=O)c1ccccc1 (stereo not drawn)", "TGI": "12.2 µM"}
{"COMPOUND": "C/C(=N/NC(=O)c1ccncc1)C(F)(F)F", "TGI": "> 100 µM"}
{"COMPOUND": "CC(C)(C)[Si](C)(C)OCC1OC(n2cnc3c(N)ncnc32)C2OC(=S)OC12 (stereo not drawn)", "TGI": "98.3 µM"}
{"COMPOUND": "CN(C)c1cccc(-c2cc(=S)c3cc4c(cc3[nH]2)OCO4)c1", "TGI": "> 100 µM"}
{"COMPOUND": "CCCCn1c(=O)[nH]c(N)c([C@@H]2c3c([nH]c(=O)n(CCCC)c3=O)Oc3ccc4ccccc4c32)c1=O", "TGI": "7.02 µM"}
{"COMPOUND": "Cc1cn([C@@H]2O[C@H](CO[Si](C)(C)C(C)(C)C)[C@]3(O[C@H]3C(=O)NO)[C@H]2O[Si](C)(C)C(C)(C)C)c(=O)[nH]c1=O", "TGI": "5.07 µM"}
{"COMPOUND": "COc1cc2c(cc1OS(C)(=O)=O)N=C[C@@H]1CCCN1C2=O", "TGI": "> 100 µM"}
{"COMPOUND": "CN(Cc1cnc2nc(N)nc(N)c2n1)c1ccc(C(=O)NCCCS(=O)(=O)O)cc1", "TGI": "> 100 µM"}
{"COMPOUND": "O=C1NC(=O)C(c2c[nH]c3ccccc23)=C1c1c[nH]c2ccccc12", "TGI": "> 25 µM"}
{"COMPOUND": "CN1C2CCC1/C(=C/c1cccc3c1OCO3)C(=O)/C2=C\\c1cccc2c1OCO2", "TGI": "> 100 µM"}
{"COMPOUND": "NC(N)=N/N=C\\c1c(-c2cccc([N+](=O)[O-])c2)nc2sccn12", "TGI": "51.4 µM"}
{"COMPOUND": "CC(=O)CCC#Cc1ccccc1C(=O)C(C)=[N+]=[N-]", "TGI": "84.1 µM"}
{"COMPOUND": "O=c1c2ccccc2nc(-c2cccc([N+](=O)[O-])c2)n1O", "TGI": "> 100 µM"}
{"COMPOUND": "COC1=C(C(c2cc(OC)c(OC)c(OC)c2)c2cc3c(cc2OC)OCO3)C(=O)OC1 (stereo not drawn)", "TGI": "> 73.2 µM"}
